// data source = ChEMBL document CHEMBL5244205

TEST_SYSTEM: Cyclin-dependent kinase 2 (Homo sapiens, UniProt P24941)
METRIC: IC50

Field IC50 (entry C[C@@H]1CCN(C(=O)CC#N)C[C@@H]1n1ccc2cnc3[nH]ccc3c21 ) reads > 1 µM

====

TEST_SYSTEM: Inhibitor of nuclear factor kappa-B kinase subunit beta (Homo sapiens, UniProt O14920)
Sequence (O14920 whole entry): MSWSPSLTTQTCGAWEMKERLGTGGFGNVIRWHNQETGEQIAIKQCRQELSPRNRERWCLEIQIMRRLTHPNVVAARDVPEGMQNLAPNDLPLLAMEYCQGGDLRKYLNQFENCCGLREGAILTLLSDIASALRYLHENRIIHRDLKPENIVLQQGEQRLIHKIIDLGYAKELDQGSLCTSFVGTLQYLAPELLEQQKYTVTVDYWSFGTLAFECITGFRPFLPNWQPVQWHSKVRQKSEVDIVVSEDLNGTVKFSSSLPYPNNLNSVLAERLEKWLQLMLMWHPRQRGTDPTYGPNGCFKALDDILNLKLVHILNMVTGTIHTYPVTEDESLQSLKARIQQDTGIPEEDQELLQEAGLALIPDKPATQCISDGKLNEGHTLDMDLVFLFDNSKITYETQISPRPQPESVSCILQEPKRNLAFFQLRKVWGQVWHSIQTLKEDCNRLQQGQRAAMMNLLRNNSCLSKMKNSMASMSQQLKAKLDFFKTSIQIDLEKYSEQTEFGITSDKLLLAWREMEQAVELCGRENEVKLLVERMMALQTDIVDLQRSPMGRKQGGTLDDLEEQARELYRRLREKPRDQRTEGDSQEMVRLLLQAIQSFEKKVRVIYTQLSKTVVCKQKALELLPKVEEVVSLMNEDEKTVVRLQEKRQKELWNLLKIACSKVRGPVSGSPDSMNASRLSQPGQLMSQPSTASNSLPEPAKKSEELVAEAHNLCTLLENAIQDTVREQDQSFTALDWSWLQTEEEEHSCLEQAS
EXPERIMENT_SUMMARY: Inhibition of IKKB (unknown origin)
pIC50: −log10 of the molar value.
METRIC: pIC50

smi=C[C@@H]1CCN(C(=O)CC#N)C[C@@H]1n1ccc2cnc3[nH]cc(C#N)c3c21 test_system="Inhibitor of nuclear factor kappa-B kinase subunit beta (Homo sapiens, UniProt O14920)" metric=pIC50 experimental_value="< 6.00"

# input for lookup
With Inhibitor of nuclear factor kappa-B kinase subunit beta (Homo sapiens, UniProt O14920) as the test system, C[C@@H]1CCN(C(=O)CC#N)C[C@@H]1n1ccc2cnc3[nH]ccc3c21 showed pIC50 of < 6.00

====

TEST_SYSTEM: Tyrosine-protein kinase CSK (Homo sapiens)
Sequence (P41240 whole entry): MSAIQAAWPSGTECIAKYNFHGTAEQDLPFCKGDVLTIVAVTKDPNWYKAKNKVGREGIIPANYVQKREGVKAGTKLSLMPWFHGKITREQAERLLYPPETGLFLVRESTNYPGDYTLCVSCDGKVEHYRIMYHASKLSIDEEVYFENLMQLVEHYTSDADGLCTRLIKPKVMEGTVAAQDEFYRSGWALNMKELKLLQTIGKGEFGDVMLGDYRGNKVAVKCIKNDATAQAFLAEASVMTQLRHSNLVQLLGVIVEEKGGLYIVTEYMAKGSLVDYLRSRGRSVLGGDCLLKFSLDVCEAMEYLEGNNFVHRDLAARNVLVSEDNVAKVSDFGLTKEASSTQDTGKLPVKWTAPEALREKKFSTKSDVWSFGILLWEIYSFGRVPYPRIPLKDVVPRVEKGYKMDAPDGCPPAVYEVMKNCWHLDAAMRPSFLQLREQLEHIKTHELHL
pIC50: −log10 of the molar value.
METRIC: pIC50

So for C[C@@H]1CCN(C(=O)CC#N)C[C@@H]1n1ccc2cnc3[nH]ccc3c21 , the logged pIC50 turned out to be < 6.00

====

EXPERIMENT_SUMMARY: in vitro
SETUP_CONDITIONS: Sprague-Dawley, rat, liver microsomes, CLH
METRIC: CLint scaled at 0.75 h, 0.2 µM (mL/min/kg)
Unit mL/min/kg implied. Number only.

Would you please look over these solved cases?
compound="C[C@@H]1CCN(C(=O)N2CCCCC2)C[C@@H]1n1c(=O)[nH]c2cnc3[nH]ccc3c21 (racemic)" unit_tag=mL/min/kg experimental_value=249
compound="Cc1c[nH]c2ncc3ccn([C@H]4CN(C(=O)CC#N)CC[C@H]4C)c3c12 (racemic)" unit_tag=mL/min/kg experimental_value=309
compound="C[C@@H]1CCN(C(=O)CC#N)C[C@@H]1n1cc(C#N)c2cnc3[nH]ccc3c21 (racemic)" unit_tag=mL/min/kg experimental_value=47
compound="C[C@@H]1CCN(C(=O)CC#N)C[C@@H]1n1ccc2cnc3[nH]ccc3c21 (racemic)" unit_tag=mL/min/kg experimental_value=110

Entry C[C@H]1CCN(C(=O)CC#N)C[C@H]1n1ccc2cnc3[nH]ccc3c21 , CLint scaled at 0.75 h, 0.2 µM reported as 89

Recorded result, C[C@@H]1CCN(C(=O)C(C)(C)C#N)C[C@@H]1n1c(=O)[nH]c2cnc3[nH]ccc3c21 (racemic) , CLint scaled at 0.75 h, 0.2 µM: 44

CLint scaled at 0.75 h, 0.2 µM reported for this compound C[C@@H]1CCN(C(=O)CC#N)C[C@@H]1n1ccc2cnc3[nH]cc(C#N)c3c21 (racemic) : 419

In plain terms, C[C@@H]1CCN(c2ccc(C#N)cn2)C[C@@H]1n1c(=O)[nH]c2cnc3[nH]ccc3c21 (racemic) has a documented CLint scaled at 0.75 h, 0.2 µM of 195

Short answer for Cc1cc2cnc3[nH]ccc3c2n1[C@H]1CN(C(=O)CC#N)CC[C@H]1C (racemic) : CLint scaled at 0.75 h, 0.2 µM was 154

====

TEST_SYSTEM: Tyrosine-protein kinase ZAP-70 (Homo sapiens)
Sequence (P43403 whole entry): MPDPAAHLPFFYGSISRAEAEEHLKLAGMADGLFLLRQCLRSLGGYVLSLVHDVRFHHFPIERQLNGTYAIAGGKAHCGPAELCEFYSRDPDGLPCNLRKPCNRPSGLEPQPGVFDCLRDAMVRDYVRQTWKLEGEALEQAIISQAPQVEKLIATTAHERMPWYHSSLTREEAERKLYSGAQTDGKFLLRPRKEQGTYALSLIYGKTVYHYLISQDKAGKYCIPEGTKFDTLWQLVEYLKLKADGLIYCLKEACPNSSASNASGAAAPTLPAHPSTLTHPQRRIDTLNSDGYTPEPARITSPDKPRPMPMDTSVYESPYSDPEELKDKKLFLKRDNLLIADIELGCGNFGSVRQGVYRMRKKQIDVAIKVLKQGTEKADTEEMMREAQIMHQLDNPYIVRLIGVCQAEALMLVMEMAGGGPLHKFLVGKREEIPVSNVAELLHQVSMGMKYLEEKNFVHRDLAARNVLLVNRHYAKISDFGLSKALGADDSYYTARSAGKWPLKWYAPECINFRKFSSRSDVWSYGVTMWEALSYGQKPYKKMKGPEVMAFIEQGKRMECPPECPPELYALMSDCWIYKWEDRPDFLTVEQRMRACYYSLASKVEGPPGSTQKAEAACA
METRIC: IC50

# value of IC50, Tyrosine-protein kinase ZAP-70 (Homo sapiens), item C[C@@H]1CCN(C(=O)CC#N)C[C@@H]1n1ccc2cnc3[nH]ccc3c21 = > 1000 nM

====

TEST_SYSTEM: CYP3A4 (Homo sapiens, UniProt P08684)
Sequence (P08684 whole entry): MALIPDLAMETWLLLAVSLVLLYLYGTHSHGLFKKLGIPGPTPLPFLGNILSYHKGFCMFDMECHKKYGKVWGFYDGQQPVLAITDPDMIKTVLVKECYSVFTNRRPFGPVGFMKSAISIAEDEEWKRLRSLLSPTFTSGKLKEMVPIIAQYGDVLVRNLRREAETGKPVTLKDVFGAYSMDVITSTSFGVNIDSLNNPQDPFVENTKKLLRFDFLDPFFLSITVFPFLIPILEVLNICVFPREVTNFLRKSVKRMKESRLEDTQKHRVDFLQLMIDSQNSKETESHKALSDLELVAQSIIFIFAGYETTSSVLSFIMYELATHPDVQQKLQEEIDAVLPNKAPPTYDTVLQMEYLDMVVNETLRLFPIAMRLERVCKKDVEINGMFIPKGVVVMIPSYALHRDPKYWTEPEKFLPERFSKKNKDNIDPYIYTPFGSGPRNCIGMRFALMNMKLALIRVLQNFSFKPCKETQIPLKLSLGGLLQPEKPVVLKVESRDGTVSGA
EXPERIMENT_SUMMARY: in vitro
SETUP_CONDITIONS: liver microsomes, probe midazolam, TDI
METRIC: inhibition at 20 min, 5 µM (%)
API: value field is a number in %; no unit string.

Here is how some molecules turned out for inhibition at 20 min, 5 µM.
molecule="C[C@@H]1CCN(C(=O)CC#N)C[C@@H]1n1c(=O)[nH]c2cnc3[nH]ccc3c21 (racemic)" unit_tag=% experimental_value=90
molecule=C[C@H]1CCN(C(=O)CC#N)C[C@H]1n1ccc2cnc3[nH]ccc3c21 unit_tag=% experimental_value=88
molecule="C[C@@H]1CCN(C(=O)N2CCCCC2)C[C@@H]1n1c(=O)[nH]c2cnc3[nH]ccc3c21 (racemic)" unit_tag=% experimental_value=11

inhibition at 20 min, 5 µM measured on C[C@@H]1CCN(c2ccc(C#N)cn2)C[C@@H]1n1c(=O)[nH]c2cnc3[nH]ccc3c21 (racemic) = 29

====

EXPERIMENT_SUMMARY: Volume of distribution in Sprague-Dawley rat at 1 mg/kg, iv measured up to 24 hrs by LC-MS/MS analysis
Assay type: ADME, organism-based
SETUP_CONDITIONS: in vivo
Below, each entry is listed with its recorded Vd.
Give the number first and the unit second.

Study these solved cases before continuing.
compound="C[C@@H]1CCN(C(=O)CC#N)C[C@@H]1n1c(=O)[nH]c2cnc3[nH]ccc3c21 (racemic)" experimental_value="3.62 L/kg"
compound=C[C@@H]1CCN(C(=O)CC#N)C[C@@H]1n1ccc2cnc3[nH]cc(C#N)c3c21 experimental_value="0.97 L/kg"

# evaluate next
The compound listed as C[C@@H]1CCN(C(=O)CC#N)C[C@@H]1n1ccc2cnc3[nH]ccc3c21 shows Vd equal to 1.52 L/kg

====

TEST_SYSTEM: Glycogen synthase kinase-3 beta (Homo sapiens)
Sequence (P49841 whole entry): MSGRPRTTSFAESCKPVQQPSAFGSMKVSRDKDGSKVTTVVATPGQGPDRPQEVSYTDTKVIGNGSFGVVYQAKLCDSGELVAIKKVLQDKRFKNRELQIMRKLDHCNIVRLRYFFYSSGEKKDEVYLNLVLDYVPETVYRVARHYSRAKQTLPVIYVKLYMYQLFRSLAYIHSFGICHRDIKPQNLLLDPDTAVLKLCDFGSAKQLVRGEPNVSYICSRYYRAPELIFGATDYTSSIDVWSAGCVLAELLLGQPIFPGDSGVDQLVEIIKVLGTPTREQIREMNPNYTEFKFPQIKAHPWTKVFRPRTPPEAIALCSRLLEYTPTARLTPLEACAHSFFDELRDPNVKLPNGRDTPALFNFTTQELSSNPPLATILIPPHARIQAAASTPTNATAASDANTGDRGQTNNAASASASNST
pIC50: −log10 of the molar value.
METRIC: pIC50

Fill in: Glycogen synthase kinase-3 beta (Homo sapiens) pIC50 for C[C@@H]1CCN(C(=O)CC#N)C[C@@H]1n1ccc2cnc3[nH]ccc3c21 = < 6.00

====

TEST_SYSTEM: Tyrosine-protein kinase JAK3 (Homo sapiens, UniProt P52333)
Sequence (P52333 whole entry): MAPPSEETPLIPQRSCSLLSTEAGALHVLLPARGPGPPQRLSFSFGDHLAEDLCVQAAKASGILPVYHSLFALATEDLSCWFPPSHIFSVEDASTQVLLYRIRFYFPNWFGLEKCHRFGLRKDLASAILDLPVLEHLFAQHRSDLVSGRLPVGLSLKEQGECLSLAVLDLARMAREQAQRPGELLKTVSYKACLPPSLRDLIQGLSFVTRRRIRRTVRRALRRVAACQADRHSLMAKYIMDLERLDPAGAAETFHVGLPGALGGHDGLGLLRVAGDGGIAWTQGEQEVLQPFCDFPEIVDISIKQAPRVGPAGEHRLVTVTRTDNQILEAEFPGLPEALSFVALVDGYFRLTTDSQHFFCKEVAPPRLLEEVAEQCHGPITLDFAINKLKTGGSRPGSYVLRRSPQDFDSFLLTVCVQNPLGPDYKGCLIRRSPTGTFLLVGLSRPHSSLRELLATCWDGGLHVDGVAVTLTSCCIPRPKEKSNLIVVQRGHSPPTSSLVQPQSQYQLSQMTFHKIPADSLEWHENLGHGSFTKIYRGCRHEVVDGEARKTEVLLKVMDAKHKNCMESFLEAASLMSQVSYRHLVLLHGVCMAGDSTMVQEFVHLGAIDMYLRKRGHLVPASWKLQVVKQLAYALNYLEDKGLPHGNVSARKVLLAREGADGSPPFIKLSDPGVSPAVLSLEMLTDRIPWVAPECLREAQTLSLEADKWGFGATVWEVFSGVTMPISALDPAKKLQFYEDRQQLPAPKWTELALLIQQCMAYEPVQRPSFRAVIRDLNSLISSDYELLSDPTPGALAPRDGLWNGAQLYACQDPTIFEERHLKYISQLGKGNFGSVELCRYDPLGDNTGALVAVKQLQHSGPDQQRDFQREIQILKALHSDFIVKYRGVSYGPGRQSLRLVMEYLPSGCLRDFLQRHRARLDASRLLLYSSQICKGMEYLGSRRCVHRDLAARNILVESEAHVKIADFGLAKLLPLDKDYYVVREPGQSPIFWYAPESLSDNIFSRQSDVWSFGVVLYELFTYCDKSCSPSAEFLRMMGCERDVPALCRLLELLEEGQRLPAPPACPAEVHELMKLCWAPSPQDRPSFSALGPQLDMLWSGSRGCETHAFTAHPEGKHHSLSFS
METRIC: log10 IC50 (log10 of the value in nM)
All values: base-10 log of IC50 in nM.

Value of measured log10 IC50 for the entry C[C@@H]1CCN(C(=O)CC#N)C[C@@H]1n1ncc2cnc3[nH]ccc3c21 (racemic) : 0.61

Record summary for C[C@@H]1CCN(C(=O)Cn2cnnn2)C[C@@H]1n1c(=O)[nH]c2cnc3[nH]ccc3c21 (racemic) : reported log10 IC50 = 0.15
